src = patent US4129737A

# Test system: Pr. vulgaris
# protocol: Minimum inhibitory concentration by agar dilution, Pr. vulgaris
# Format: cell-based
# assayContext: Proteus vulgaris; N.A. (nutrient agar, pH 6.8), 37° C., 18 hours; Table I; read-out: minimum inhibitory concentration (M.I.C.)
metric: MIC (µg/mL)
Kindly answer with a numeric value in µg/mL, unit omitted.

Use the examples below as a reference point.
| compound | testSystem | MIC / µg/mL |
| --- | --- | --- |
| CCn1cc(C(=O)O)c(=O)c2cnc(N3CCC(O)CC3)nc21 [IV] | Pr. vulgaris | 3.1 |
| CN1CCN(c2ncc3c(=O)c(C(=O)O)cn(C)c3n2)CC1 [Example X] | Pr. vulgaris | 3.1 |

Consider CCn1cc(C(=O)O)c(=O)c2cnc(N3CCN(CCO)CC3)nc21 [Example VI] . Its measured MIC is 50

Entry Cn1cc(C(=O)O)c(=O)c2cnc(N3CCN(CCO)CC3)nc21 [Example XI] — recorded MIC = 25

Sample CCn1cc(C(=O)O)c(=O)c2cnc(N3CCNCC3)nc21 [Example VIII] ; MIC observed: 6.2

What the record says about CCn1cc(C(=O)O)c(=O)c2cnc(N3CCN(C)CC3)nc21 [Example V] : MIC is 1.6

====

Listed here are compounds together with their documented MIC.
# Test system: Esch. Coli 95
# protocol: Minimum inhibitory concentration by agar dilution, Esch. Coli 95
# Type: cell-based
# assayContext: Escherichia coli, 18 h; agar medium, N.A.; Table II; read-out: minimum inhibitory concentration

Examples from the recorded data:
| compound | metric | experimentalResult |
| --- | --- | --- |
| CCN1CCN(c2ncc3c(=O)c(C(=O)O)cn(CC)c3n2)CC1 [Example XII] | MIC | 0.8 µg/mL |
| CCn1cc(C(=O)O)c(=O)c2cnc(N3CCN(Cc4ccc(Cl)cc4)CC3)nc21 [XV] | MIC | 100 µg/mL |
| CCCN1CCN(c2ncc3c(=O)c(C(=O)O)cn(CC)c3n2)CC1 [XIII] | MIC | 50 µg/mL |
| C=CCN1CCN(c2ncc3c(=O)c(C(=O)O)cn(CC)c3n2)CC1 [XIV] | MIC | 50 µg/mL |

Now take the following compound into account.
Just so you know, measured MIC for CCn1cc(C(=O)O)c(=O)c2cnc(N3CCN(Cc4ccc(OC)cc4)CC3)nc21 [XVI] came out at 3.1 µg/mL

====

# System: Staphylococcus 209 P
# protocol: Minimum inhibitory concentration by agar dilution, Staphylococcus 209 P
# Format: cell-based
# assayContext: Staphylococcus, T.S.A. (trypticase soya medium, pH 7.3), 37° C., 18 hours, read-out: minimum inhibitory concentration (M.I.C.)
metric: MIC (µg/mL)
Dear colleague, please return just the value in µg/mL, with no unit written.

| smilesData | unitTag | MIC |
| --- | --- | --- |
| CN1CCN(c2ncc3c(=O)c(C(=O)O)cn(C)c3n2)CC1 | µg/mL | 100 |

response.value for CCn1cc(C(=O)O)c(=O)c2cnc(N3CCN(Cc4ccccc4)CC3)nc21 (field: MIC) = 3.1

Given item CCn1cc(C(=O)O)c(=O)c2cnc(N3CCN(C)CC3)nc21 , the value recorded as its MIC is 100

Per the record, CCn1cc(C(=O)O)c(=O)c2cnc(N3CCC(O)CC3)nc21 has MIC of 50

The reported value for CCn1cc(C(=O)O)c(=O)c2cnc(N3CCNCC3)nc21 in terms of MIC is 12.5
